Biological target: Type-1 angiotensin II receptor (Oryctolagus cuniculus)
Sequence (P34976 whole entry): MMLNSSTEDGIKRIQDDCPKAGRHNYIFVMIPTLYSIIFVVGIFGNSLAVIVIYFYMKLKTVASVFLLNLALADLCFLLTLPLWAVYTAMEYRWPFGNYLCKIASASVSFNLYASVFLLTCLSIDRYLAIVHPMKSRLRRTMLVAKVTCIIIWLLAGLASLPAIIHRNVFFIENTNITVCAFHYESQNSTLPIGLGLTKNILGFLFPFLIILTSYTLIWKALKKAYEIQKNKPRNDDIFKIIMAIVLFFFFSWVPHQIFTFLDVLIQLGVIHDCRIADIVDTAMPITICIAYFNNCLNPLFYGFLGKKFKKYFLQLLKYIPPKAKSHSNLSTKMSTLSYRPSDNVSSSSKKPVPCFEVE
Classify: TRUE when IC50 is strictly less than 1 nM; FALSE when IC50 is not.

{"CPD_SMILES": "CCCCc1nn(-c2ccccc2C(F)(F)F)c(=O)n1Cc1ccc(-c2ccccc2S(=O)(=O)NC(=O)c2cc(Br)sc2Br)cc1", "QUALITATIVE_LABEL": "TRUE"}
{"CPD_SMILES": "CCCCc1nn(-c2ccccc2C(F)(F)F)c(=O)n1Cc1ccc(-c2ccccc2S(=O)(=O)NC(=O)c2cccc(Cl)c2)cc1", "QUALITATIVE_LABEL": "FALSE"}
{"CPD_SMILES": "CCCCc1nn(-c2ccccc2C(F)(F)F)c(=O)n1Cc1ccc(-c2ccccc2S(=O)(=O)NC(=O)CC(C)(C)C)cc1", "QUALITATIVE_LABEL": "FALSE"}
{"CPD_SMILES": "CCCCc1nn(-c2ccccc2C(F)(F)F)c(=O)n1Cc1ccc(-c2ccccc2S(=O)(=O)NC(=O)CCC2CCCC2)cc1", "QUALITATIVE_LABEL": "FALSE"}
{"CPD_SMILES": "CCCCc1nn(-c2ccccc2C(F)(F)F)c(=O)n1Cc1ccc(-c2ccccc2S(=O)(=O)NC(=O)CCOC)cc1", "QUALITATIVE_LABEL": "FALSE"}
{"CPD_SMILES": "CCCCCCCC(=O)NS(=O)(=O)c1ccccc1-c1ccc(Cn2c(CCCC)nn(-c3ccccc3C(F)(F)F)c2=O)cc1", "QUALITATIVE_LABEL": "FALSE"}
{"CPD_SMILES": "CCCCc1nn(-c2ccccc2C(F)(F)F)c(=O)n1Cc1ccc(-c2ccccc2S(=O)(=O)NC(=O)c2oc3ccccc3c2C)cc1", "QUALITATIVE_LABEL": "TRUE"}

###

tested on: Rattus norvegicus; experiment: Time from onset of action until significant (i.e., >=30%) inhibition of pressor response is no longer observed, at 1 (mg/kg) intravenous dose; assay type: functional
Let's look at some compounds and their measured Duration.

{"CPD_SMILES": "CCCCc1nn(-c2ccccc2C(F)(F)F)c(=O)n1Cc1ccc(-c2ccccc2S(=O)(=O)NC(=O)c2ccccc2C)cc1", "Duration": ">6 h"}
{"CPD_SMILES": "CCCCc1nn(-c2ccccc2C(F)(F)F)c(=O)n1Cc1ccc(-c2ccccc2S(=O)(=O)NC(=O)c2cccs2)cc1", "Duration": ">5.5 h"}
{"CPD_SMILES": "CCCCc1nn(-c2ccccc2C(F)(F)F)c(=O)n1Cc1ccc(-c2ccccc2S(=O)(=O)NC(=O)c2sccc2Cl)cc1", "Duration": ">6 h"}
{"CPD_SMILES": "O=C(NS(=O)(=O)c1ccccc1-c1ccc(Cn2c(CCCC(F)(F)F)nn(-c3ccccc3C(F)(F)F)c2=O)cc1)c1ccccc1Cl", "Duration": "2.4 h"}
{"CPD_SMILES": "CCCCc1nn(-c2ccccc2C(F)(F)F)c(=O)n1Cc1ccc(-c2ccccc2S(=O)(=O)NC(=O)OC(C)(C)C)cc1", "Duration": ">6 h"}
{"CPD_SMILES": "CCCCc1nn(-c2ccccc2C(F)(F)F)c(=O)n1Cc1ccc(-c2ccccc2S(=O)(=O)NC(=O)c2occc2C)cc1", "Duration": ">6 h"}
{"CPD_SMILES": "CCCCc1nn(-c2ccccc2C(F)(F)F)c(=O)n1Cc1ccc(-c2ccccc2S(=O)(=O)NC(=O)c2ccccc2Cl)cc1", "Duration": ">24 h"}
